- Test system: HT-29
- protocol: Hypoxic cytotoxicity ratio, ratio of IC50 for human HT-29 cells in oxic (aerobic) condition to IC50 for human HT-29 cells in hypoxic (anoxic) conditions
- Format: functional
// assign satisfied if Ratio IC50 falls strictly below 2, else not satisfied (ties count as not satisfied)

- molecule: "O=C(c1cc2cc(OCCO)ccc2[nH]1)N1CC(COS(=O)(=O)Cc2ccccc2)c2c1cc([N+](=O)[O-])c1ccccc21 (stereo not drawn)"
  experimental target: "HT-29"
  class: "not satisfied"
- molecule: "O=C(c1cc2cc(OCCO)ccc2[nH]1)N1CC(CCl)c2c1cc([N+](=O)[O-])c1ccccc21 (stereo not drawn)"
  experimental target: "HT-29"
  class: "satisfied"
- molecule: "COc1ccc2[nH]c(C(=O)N3CC(CCl)c4c3cc([N+](=O)[O-])c3ccccc43)cc2c1 (stereo not drawn)"
  experimental target: "HT-29"
  class: "not satisfied"
- molecule: "COc1ccc(/C=C/C(=O)N2CC(COS(=O)(=O)Cc3ccccc3)c3c2cc([N+](=O)[O-])c2ccccc32)cc1O (stereo not drawn)"
  experimental target: "HT-29"
  class: "satisfied"
- molecule: "Cc1ccc(S(=O)(=O)OCC2CN(C(=O)c3cc4cc(OCCO)ccc4[nH]3)c3cc([N+](=O)[O-])c4ccccc4c32)cc1 (stereo not drawn)"
  experimental target: "HT-29"
  class: "satisfied"
- molecule: "COc1cc2cc(C(=O)N3CC(COS(=O)(=O)c4ccc(C)cc4)c4c3cc([N+](=O)[O-])c3ccccc43)[nH]c2c(OC)c1OC (stereo not drawn)"
  experimental target: "HT-29"
  class: "not satisfied"
- molecule: "COc1ccc(/C=C/C(=O)N2CC(CCl)c3c2cc([N+](=O)[O-])c2ccccc32)cc1O (stereo not drawn)"
  experimental target: "HT-29"
  class: "not satisfied"
- molecule: "CN(C)CCOc1ccc2[nH]c(C(=O)N3CC(COS(=O)(=O)C4CCCCC4)c4c3cc([N+](=O)[O-])c3ccccc43)cc2c1 (stereo not drawn)"
  experimental target: "HT-29"
  class: "not satisfied"

---

- Tested on: A549
- protocol: Cytotoxicity against human A549 cells assessed as reduction of cell density incubated for 4 hrs in oxic (aerobic) condition measured 5 days post dose by SRB assay
- Type: functional, cell-based

- compound: "COc1cc2cc(C(=O)N3CC(COS(=O)(=O)Cc4ccccc4)c4c3cc([N+](=O)[O-])c3ccccc43)[nH]c2c(OC)c1OC (stereo unspecified)"
  unit of measurement: "nM"
  IC50: 1080

---

- protocol: Solubility in alphaMEM culture medium containing 5% FCS at 22 degC
- Format: physicochemical
Listing of recorded solubility by entry.

- molecule: "COc1cc2cc(C(=O)N3CC(COS(C)(=O)=O)c4c3cc(N)c3ccccc43)[nH]c2c(OC)c1OC (stereo not given)"
  unit of measurement: "µM"
  solubility: 15
- molecule: "O=C(c1cc2cc(OCCO)ccc2[nH]1)N1CC(CCl)c2c1cc([N+](=O)[O-])c1ccccc21 (stereo not given)"
  unit of measurement: "µM"
  solubility: 13
- molecule: "Cc1ccc(S(=O)(=O)OCC2CN(C(=O)c3cc4cc(OCCO)ccc4[nH]3)c3cc([N+](=O)[O-])c4ccccc4c32)cc1 (stereo not given)"
  unit of measurement: "µM"
  solubility: 29
- molecule: "COc1cc2cc(C(=O)N3CC(COS(=O)(=O)c4ccc(C)cc4)c4c3cc([N+](=O)[O-])c3ccccc43)[nH]c2c(OC)c1OC (stereo not given)"
  unit of measurement: "µM"
  solubility: 89
- molecule: "COc1cc2cc(C(=O)N3CC(CCl)c4c3cc([N+](=O)[O-])c3ccccc43)[nH]c2c(OC)c1OC (stereo not given)"
  unit of measurement: "µM"
  solubility: 5
- molecule: "COc1ccc2[nH]c(C(=O)N3CC(CCl)c4c3cc([N+](=O)[O-])c3ccccc43)cc2c1 (stereo not given)"
  unit of measurement: "µM"
  solubility: 38
- molecule: "CN(C)CCOc1ccc2[nH]c(C(=O)N3CC(COS(=O)(=O)C4CCCCC4)c4c3cc([N+](=O)[O-])c3ccccc43)cc2c1 (stereo not given)"
  unit of measurement: "µM"
  solubility: 22
- molecule: "COc1cc2cc(C(=O)N3CC(COS(C)(=O)=O)c4c3cc([N+](=O)[O-])c3ccccc43)[nH]c2c(OC)c1OC (stereo not given)"
  unit of measurement: "µM"
  solubility: 69
- molecule: "O=C(c1cc2cc(OCCO)ccc2[nH]1)N1CC(COS(=O)(=O)Cc2ccccc2)c2c1cc([N+](=O)[O-])c1ccccc21 (stereo not given)"
  unit of measurement: "µM"
  solubility: 46
- molecule: "COc1cc2cc(C(=O)N3CC(COS(=O)(=O)C4CCCCC4)c4c3cc(N)c3ccccc43)[nH]c2c(OC)c1OC (stereo not given)"
  unit of measurement: "µM"
  solubility: 37
- molecule: "Nc1cc2c(c3ccccc13)C(CCl)CN2C(=O)c1cc2cc(OCCO)ccc2[nH]1 (stereo not given)"
  unit of measurement: "µM"
  solubility: 22
- molecule: "COc1cc2cc(C(=O)N3CC(COS(=O)(=O)C4CCCCC4)c4c3cc([N+](=O)[O-])c3ccccc43)[nH]c2c(OC)c1OC (stereo not given)"
  unit of measurement: "µM"
  solubility: 70
- molecule: "COc1cc2cc(C(=O)N3CC(COS(=O)(=O)Cc4ccccc4)c4c3cc([N+](=O)[O-])c3ccccc43)[nH]c2c(OC)c1OC (stereo not given)"
  unit of measurement: "µM"
  solubility: 17
- molecule: "CN(C)CCOc1ccc2[nH]c(C(=O)N3CC(CCl)c4c3cc([N+](=O)[O-])c3ccccc43)cc2c1 (stereo not given)"
  unit of measurement: "µM"
  solubility: 193
- molecule: "CN(C)CCOc1ccc2[nH]c(C(=O)N3CC(COS(=O)(=O)Cc4ccccc4)c4c3cc([N+](=O)[O-])c3ccccc43)cc2c1 (stereo not given)"
  unit of measurement: "µM"
  solubility: 91
